meta.source: patent US20230271949A1

biological target: GLP-1R (Homo sapiens); assay: GLP-1R agonist cAMP stimulation assay (HTRF cAMP); conditions: HEK293 cell line expressing GLP-1 target; HTRF cAMP agonist mode, 30 min at RT
Exam item: assign true to entries whose EC50 is below 0.4 nM and false to entries at or above 0.4 nM. Note that a value of exactly 0.4 nM receives false.

Example entries and their recorded answers appear below.
1. Cc1cc(C(=O)Nc2ccc3c(c2)nc(Cc2c(F)cc(-c4cccc5c4OC(C)(c4ccc(Cl)cc4F)O5)cc2F)n3C[C@@H]2CCO2)cc2c1NC(=O)C21CC1 (stereo partly drawn) = false
2. COCCn1c(CN2CCC(c3cccc(OCc4ccc(Cl)cc4F)n3)CC2)nc2cc(C(=O)NCc3ccc(O)c(F)c3)ccc21 = false
3. COCCn1c(C2CC23CCN(c2cccc(OCc4ccc(C#N)cc4F)n2)CC3)nc2ccc(C(=O)Nc3ccc4[nH]nc(C)c4c3)cc21 (stereo not drawn) = false

Please indicate whether the reported EC50 of Cn1c(=O)[nH]c2ccc(NC(=O)c3ccc4c(c3)nc(CN3CCC(c5cccc(OCc6ccc(Cl)cc6F)n5)CC3)n4C[C@@H]3CCO3)cc21 is strictly below 0.4 nM. false

Please indicate whether the reported EC50 of Cc1n[nH]c2c(F)cc(C(=O)Nc3ccc4c(c3)nc(C3CC35CCN(c3cccc(OCc6ccc(Cl)cc6F)n3)CC5)n4CC3CCO3)cc12 (stereo not drawn) is strictly below 0.4 nM. true

Please indicate whether the reported EC50 of N#Cc1ccc(COc2cccc(C3=CCN(Cc4nc5cc(NC(=O)c6ccc7[nH]nc(C(F)(F)F)c7c6)ccc5n4C[C@@H]4CCO4)CC3)n2)c(F)c1 is strictly below 0.4 nM. false

----------
target: GLP-1R (Homo sapiens); experiment: GLP-1R agonist cAMP stimulation assay (HTRF cAMP); conditions: HEK293 cell line expressing GLP-1 target; HTRF cAMP agonist mode, 30 min at RT
pEC50: −log10 of the molar value.
Rule: YES for pEC50 not less than 9, NO for anything less.

1) O=C(Nc1ccc2[nH]ncc2c1)c1ccc2c(c1)nc(CN1CCC(c3cccc(OCc4ccc(Cl)cc4F)n3)CC1)n2C[C@@H]1CCO1 = NO
2) Cc1n[nH]c2c(C)cc(NC(=O)c3ccc4nc(CN5CC=C(c6cccc(OCc7ccc(Cl)cc7F)n6)CC5)n(CC5CCO5)c4c3)cc12 (centres unmarked) = NO
3) Cc1n[nH]c2ccc(C(=O)Nc3ccc4c(c3)nc(Cc3ccc(-c5cccc6c5OC(C)(c5ccc(Cl)cc5F)O6)s3)n4C[C@@H]3CCO3)cc12 (some centres unmarked) = NO

Form field: pEC50 at least 9? Entry: Cc1n[nH]c2c(C)cc(C(=O)Nc3ccc4c(c3)nc(CN3CCC(c5cccc6c5OC(C)(c5ccc(Cl)cc5F)O6)CC3)n4CC3CCO3)cc12 (centres unmarked) YES

Form field: pEC50 at least 9? Entry: O=C(Nc1ccc2nc(CN3CC=C(c4cccc(OCc5ccc(Cl)cc5F)n4)CC3)n(C[C@@H]3CCO3)c2c1)c1ccc2[nH]c(=O)[nH]c2c1 YES

----------
target: GLP-1R (Homo sapiens)
endpoint: pKi
Answers are plain numbers, as −log10 of the molar value.

1) O=C(Nc1ccc2c(c1)nc(CN1CCC(c3cccc(OCc4ccc(Cl)cc4F)n3)CC1)n2C[C@@H]1CCO1)c1ccc2[nH]c(=O)[nH]c2c1 = 7.14
2) CCn1cncc1Cn1c(Cc2c(F)cc(-c3cccc(OCc4ccc(Cl)cn4)n3)cc2F)nc2cc(NC(=O)c3cc(F)c4[nH]nc(C)c4c3)ccc21 = 6.96
3) Cc1cc(NC(=O)c2ccc3c(c2)nc(CN2CCC(c4cccc(OCc5ccc(Cl)cc5F)n4)CC2)n3C[C@@H]2CCO2)cc2cn[nH]c12 = 5.93
4) Cc1n[nH]c2c(F)cc(NC(=O)c3ccc4c(c3)nc(CN3CC=C(c5cccc(OCc6ccc(Cl)cc6F)n5)CC3)n4C[C@@H]3CCO3)cc12 = 6.06
5) Cc1n[nH]c2c(F)cc(C(=O)Nc3ccc4c(c3)nc(Cc3cc(F)c(-c5cccc(OCc6ccc(Cl)cc6F)n5)cc3F)n4C[C@@H]3CCO3)cc12 = 7.85
6) Cc1n[nH]c2c(F)cc(C(=O)Nc3ccc4c(c3)nc(Cc3cc(F)c(-c5cccc(OCc6ccc(Cl)cc6F)n5)cc3CO)n4C[C@@H]3CCO3)cc12 = 7.53
7) CCn1cncc1Cn1c(Cc2cc(F)c(-c3cccc(OCc4ccc(Cl)cc4F)n3)cc2F)nc2cc(NC(=O)c3cc(F)c4[nH]nc(C)c4c3)ccc21 = 7.81
8) Cc1n[nH]c2c(F)cc(NC(=O)c3ccc4c(c3)nc(CN3CCC(c5cccc(OCc6ccc(Cl)cc6F)n5)CC3)n4C[C@@H]3CCO3)cc12 = 6.05

Dear colleague, could you send me pKi for each of the items below? Thanks.
1. O=C(Nc1ccc2c(c1)C1(CC1)C(=O)N2)c1ccc2c(c1)nc(CN1CCC(c3cccc(OCc4ccc(Cl)cn4)n3)CC1)n2C[C@@H]1CCO1
2. Cc1n[nH]c2c(C)cc(NC(=O)c3ccc4c(c3)nc(CN3CCC(c5cccc(OCc6ccc(C#N)cc6F)n5)CC3)n4C[C@@H]3CCO3)cc12
3. Cc1n[nH]c2ccc(NC(=O)c3ccc4c(c3)nc(CN3CC=C(c5cccc(OCc6ccc(Cl)cc6F)n5)CC3)n4C[C@@H]3CCO3)cc12
4. Cc1n[nH]c2c(F)cc(C(=O)Nc3ccc4c(c3)nc(Cc3c(F)cc(-c5cccc6c5O[C@](C)(c5ccc(Cl)cn5)O6)cc3F)n4CC3CCO3)cc12 (stereo partly shown)
5. Cc1n[nH]c2c(C)cc(C(=O)Nc3ccc4c(c3)nc(CN3CC=C(c5cccc6c5O[C@@](C)(c5ccc(Cl)cc5F)O6)CC3)n4CC3CCO3)cc12 (stereo partly shown)

1: 6.19; 2: 6.13; 3: 6.06; 4: 6.69; 5: 7.17

----------
molecular target: GLP-1R (Homo sapiens, UniProt P43220); experiment: GLP-1R agonist cAMP stimulation assay (HTRF cAMP); conditions: HEK293 cell line expressing GLP-1 target; HTRF cAMP agonist mode, 30 min at RT
Sequence (P43220 24-463): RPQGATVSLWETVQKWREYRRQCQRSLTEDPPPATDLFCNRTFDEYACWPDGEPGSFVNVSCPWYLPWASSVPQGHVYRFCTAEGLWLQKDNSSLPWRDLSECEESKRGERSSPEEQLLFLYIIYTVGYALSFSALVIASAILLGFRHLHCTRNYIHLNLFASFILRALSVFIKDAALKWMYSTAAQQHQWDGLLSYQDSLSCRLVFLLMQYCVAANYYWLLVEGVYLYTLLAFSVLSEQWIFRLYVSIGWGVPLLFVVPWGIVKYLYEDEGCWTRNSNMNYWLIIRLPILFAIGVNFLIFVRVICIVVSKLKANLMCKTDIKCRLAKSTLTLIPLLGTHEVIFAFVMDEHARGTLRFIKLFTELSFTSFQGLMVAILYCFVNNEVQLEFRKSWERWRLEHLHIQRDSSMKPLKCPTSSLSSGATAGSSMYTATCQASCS
endpoint: pEC50
Numbers only, as −log10 of the molar value.

Examples with their reported pEC50 follow.
1) O=C(Nc1ccc2[nH]nnc2c1)c1ccc2c(c1)nc(CN1CCC(c3cccc(OCc4ccc(Cl)cc4F)n3)CC1)n2C[C@@H]1CCO1 [Compound 193] = 9.68
2) C[C@]12C[C@@H](C(=O)O)N(C(=O)CNC(=O)c3ccc4c(c3)nc(CN3CCC(c5cccc(OCc6ccc(Cl)cc6F)n5)CC3)n4C[C@@H]3CCO3)[C@@]1(C)C2 [Compound 55] = 8.74
3) CC1(c2ccc(Cl)cc2F)Oc2cccc(C3=CCN(Cc4nc5cc(C(=O)Nc6ccc7[nH]nc(C8CC8)c7c6)ccc5n4CC4CCO4)CC3)c2O1 (stereo not drawn) [Compound 330] = 9.06
4) CC1(c2ccc(C#N)cc2F)Oc2cccc(C3CCN(Cc4nc5cc(NC(=O)c6ccc7[nH]nc(C8CC8)c7c6)ccc5n4CC4CCO4)CC3)c2O1 (stereo not drawn) [Compound 348] = 9.04

Dear colleague, could you send me pEC50 for each of the items below? Thanks.
1. O=C(Nc1ncc2[nH]cnc2n1)c1ccc2c(c1)nc(CN1CCC(c3cccc(OCc4ccc(Cl)cc4F)n3)CC1)n2C[C@@H]1CCO1 [Compound 89]
2. COCCn1c(CN2CCC(c3cccc(OCc4ccc(Cl)cc4F)n3)CC2)nc2cc(NC(=O)c3cc(C)c4[nH]nc(C)c4c3)ccc21 [Compound 260]

[7.06, 8.99]

----------
biological target: GLP-1R (Homo sapiens); experiment: GLP-1R agonist cAMP stimulation assay (HTRF cAMP); conditions: HEK293 cell line expressing GLP-1 target; HTRF cAMP agonist mode, 30 min at RT
endpoint: EC50 (nM)
One number for each entry, in nM.

Examples with their reported EC50 follow.
1. Cc1cc(NC(=O)c2ccc3c(c2)nc(CN2CC=C(c4cccc(OCc5ccc(Cl)cc5F)n4)CC2)n3C[C@@H]2CCO2)cc2c(C3CC3)n[nH]c12 = 1.68
2. Cc1cc(NC(=O)c2ccc3c(c2)nc(CN2CC=C(c4cccc(OCc5ccc(Cl)cc5F)n4)CC2)n3C[C@@H]2CCO2)cc2nn[nH]c12 = 0.68

Lab note: next compound to report on.
EC50 for O=C(Nc1cc(C(F)(F)F)c2c(c1)C1(CC1)C(=O)N2)c1ccc2c(c1)nc(CN1CCC(c3cccc(OCc4ccc(Cl)cc4F)n3)CC1)n2C[C@@H]1CCO1 is 1.83

----------
biological target: GLP-1R (Homo sapiens, UniProt P43220); experiment: GLP-1R agonist cAMP stimulation assay (HTRF cAMP); settings: HEK293 cell line expressing GLP-1 target; HTRF cAMP agonist mode, 30 min at RT
endpoint: EC50 (nM)
Give bare numbers, in nM.

1. Cc1n[nH]c2c(C)cc(C(=O)Nc3ccc4c(c3)nc(CN3CC=C(c5cccc(OCc6ccc(C#N)c7cc(Cl)oc67)n5)CC3)n4C[C@@H]3CCO3)cc12 = 0.41

Dear colleague, could you send me EC50 for each of the items below? Thanks.
1. Cc1n[nH]c2c(C3CC3)cc(NC(=O)c3ccc4c(c3)nc(CN3CCC(c5cccc(OCc6ccc(Cl)cc6F)n5)CC3)n4C[C@@H]3CCO3)cc12
2. O=C(NCC(=O)N1CC[C@H](C(=O)O)C1)c1ccc2c(c1)nc(CN1CCC(c3cccc(OCc4ccc(Cl)cc4F)n3)CC1)n2C[C@@H]1CCO1
3. O=C(Nc1ccc2c(c1)nc(C1CC13CCN(c1cccc(OCc4ccc(Cl)cc4F)n1)CC3)n2C[C@@H]1CCO1)c1cc(F)c2c(c1)C1(CC1)C(=O)N2 (some centres unmarked)

1: 8.31; 2: 79.7; 3: 1.92

Dear colleague, could you send me EC50 for each of the items below? Thanks.
1. Cc1n[nH]c2cnc(C(=O)Nc3ccc4c(c3)nc(CN3CC=C(c5cccc(OCc6ccc(Cl)cc6F)n5)CC3)n4C[C@@H]3CCO3)cc12
2. Cc1n[nH]c2c(C(F)F)cc(NC(=O)c3ccc4c(c3)nc(CN3CCC(c5cccc(OCc6ccc(Cl)cc6F)n5)CC3)n4C[C@@H]3CCO3)cc12
3. O=C(Nc1ccc2c(c1)C1(CC1)C(=O)N2)c1ccc2c(c1)nc(CN1CC=C(c3cccc(OCc4ccc(Cl)cc4F)n3)CC1)n2C[C@@H]1CCO1
4. N#Cc1ccc(COc2cccc(C3CCN(Cc4nc5cc(C(=O)Nc6ccc7c(c6)C6(CC6)C(=O)N7)ccc5n4C[C@@H]4CCO4)CC3)n2)c(F)c1
5. Cc1n[nH]c2cc(F)c(C(=O)Nc3ccc4c(c3)nc(CN3CC=C(c5cccc(OCc6ccc(Cl)cc6F)n5)CC3)n4C[C@@H]3CCO3)cc12

8.71
0.63
0.75
0.3
2.13
